Source listed as the EternaBench riboswitch data.

System: MS2 coat protein
Assay: apparent Kd, MS2 coat protein; higher = weaker binding; RNA-MaP array; theophylline 2 mM where present
Conditions: designed as: OFF switch for theophylline; no ligand
readout: apparent Kd (nM)
Give just the numeric value; nM need not be written.

Can you look up apparent Kd on MS2 coat protein for AAACAUUGCUCAGAUACCAGACAUGAGGAUCACCCAUGUACCGAGGUACCCGAAAGGAAUGUCCCUUGGCAGCUGAGCAAUGAAA ?
12

Can you look up apparent Kd on MS2 coat protein for AUAUGAUCAUAUGAUACCAGAAAUGGUAUUCCUUUCUUUCUUACAUGAGGAUCACCCAUGUUCCCUUGGCAGCAUAUGAUCAUAU ?
174

Can you look up apparent Kd on MS2 coat protein for UUCUGGUCCCGUGAUACCAGAGACAUGAGGAUCACCCAUGUACAUGAGGAUCACCCAUGUUUCCCUUGGCAGCACUGUAGGGAGC ?
196

Can you look up apparent Kd on MS2 coat protein for ACGAACGAUAGUGAUACCAGACGAACAUGAGGAUCACCCAUGUUAUACACAUGGUUUAUUGUCCCUUGGCAGCACUUUAAGUUCG ?
147

Can you look up apparent Kd on MS2 coat protein for ACGUCUCGAAAACUCGUAGUAACUAUAGAUACCAGUAGCGAGAGUUACCCUUGGCAGCUACAUGAGGAUCACCCAUGUACGAGGA ?
15.6

* * *

Items are presented alongside their recorded apparent Kd.
System: MS2 coat protein
Experiment: apparent Kd, MS2 coat protein; higher = weaker binding; RNA-MaP array; FMN 200 µM where present
Conditions: designed as: ON switch for flavin mononucleotide; no ligand

AAACACAAACAUGAGGAUCACCCAUGUGGCGAAAGCCUUGGGAGAAGGGCGAUUGCAAAGCAAUCGCAGGAUAUUCGUAUUGUG ... 370 nM
GUGUACAUCGGAGGAUAUCAUGUAAAUACAUGAGGAUCACCCAUGUCGAUGGAGACAUCGGAGAUUGAGAAGGCCGAUGUACCG ... 169 nM
GCGAUUUUGUAAGGAUAUACACGAGUUUUAAGUGUAGAAGGUACUUACAUGAGGAUCACCCAUGUAUAAAUGUAUAAUAGUCGC ... 9.11 nM
CAUCUCCCUUUUACAUGAGGAUCACCCAUGUUUUCAUAUUGAGAGGAUAUCGUAUUUGGAAACAUCGAGAAGGCUCAUUUGUAU ... 536 nM
UUUUUAAAUAUAGGAUAUGGAAACAUGAGGAUCACCCAUGUAUGAUAAGAUAAAUUAUGAUAUAGCCAGAAGGAUACAAUUUUU ... 31.9 nM
AGAGGUCGCACAGGAUAUCAUACAUGAGGAUCACCCAUGUCAGAAAACAAAUGAGAAGGGUGCGCAUUAAUUGCUUGUGAAGAA ... 15.1 nM

Could you tell me which apparent Kd is on file for GAAUUCGCAUGAGGAUAUGCACUCAUUUCAUGUGCAGAAGGUAUAACAUUAGACAUGAGGAUCACCCAUGUAUUAGUCAUUAAC ?
10.1 nM

Could you tell me which apparent Kd is on file for CGCAAGUAUACAUGAGGAUCACCCAUGUCAGAUAGGGUAAUCAGAAGGUACAAUUAGAGAUAGAGUAAGGAUAUGAAAUUUGCG ?
865 nM

Could you tell me which apparent Kd is on file for GCUGUCGCAUGAGGAUAUGGUCAGCUUUGCUGACCAGAAGGCAUGUCAAUAGACAUGAGGAUCACCCAUGUAGUAAAGACAGCU ?
375 nM

Could you tell me which apparent Kd is on file for UUUGCAUUCCGAGGAUAUUCAGAUAAUAACUACACAUGAGGAUCACCCAUGUGGCGAUAGCCUAGGGAGAAGGCGGUUUGCUUU ?
19.7 nM

Could you tell me which apparent Kd is on file for GCCAUCGCAUGAGGAUAUGGCACCGUUUCGGUGCCAGAAGGCAUGUCUUAAGACAUGAGGAUCACCCAUGUAGUUAAGAUGGCA ?
860 nM

Could you tell me which apparent Kd is on file for GUGCCUUGGGAGAAGGUUAUGUGCAAAGCAUUUAAAGGAUAUUCAUACCGGAAACGGACAUGAGGAUCACCCAUGUGGCACAAA ?
621 nM

Could you tell me which apparent Kd is on file for AAUUUAAUACAUGAGGAUCACCCAUGUAAAUUAAUUAAGAUCAAGGAUAUCAGCUCGUUUAGAGCUGAGAAGGUGAUCACAUGU ?
343 nM

Could you tell me which apparent Kd is on file for UUUAUACAUGAGGAUCACCCAUGUCAACAAAGUCGAGGAUAUGGGCAUAUUAUCUUAUUUCCAGAAGGCGAAUUCU ?
233 nM

Could you tell me which apparent Kd is on file for CAUGUCCUCACAGGAUAUGCACCACUUUGUGGUGCAGAAGGGUGGUAACAUGAGGAUCACCCAUGUGGACAUGAUAUAUUUAAU ?
523 nM

Could you tell me which apparent Kd is on file for GGACAUCCCACAGGAUAUGCUGGACUUUGUCCAGCAGAAGGGUGAAGAACAUGAGGAUCACCCAUGUGGAUGUCCAUAUUUAAU ?
1440 nM

Could you tell me which apparent Kd is on file for GCAAAACAUGAGGAUCACCCAUGUCAACAAAAUCAAGGAUAUGAGCCGGCAAUGCCAGCAUCAGAAGGUGAACCUU ?
81.9 nM

Could you tell me which apparent Kd is on file for GUAGCUAUCGGAGGAUAUUCAUACCGGAAACGGACAUGAGGAUCACCCAUGUGGCGAAAGCCUUGGGAGAAGGCCGAUCGCUAC ?
239 nM

Could you tell me which apparent Kd is on file for UGGUCAUCAUCAGGAUAUUAACGUGGGCUACUUUAAGAAGGGAUAGUGGGAGAGGAUGUGAAACAUGAGGAUCACCCAUGUUGU ?
15.7 nM

Could you tell me which apparent Kd is on file for CGGCCGGGUCGAGGAUAUAAGUCUAGGACAUGAGGAUCACCCAUGUAUGUCUUAGAAGGCGACCCGGCCAGCCUGUUACAGGCA ?
31.7 nM

Could you tell me which apparent Kd is on file for GCCAACUUAUGAGGAUAUGGCACCUUAUUGGUGCCAGAAGGCAUGUCUAUUGACAUGAGGAUCACCCAUGUAUUAUAGUUGGCA ?
715 nM

Could you tell me which apparent Kd is on file for GUAGAUAGAUAGAAGGUAUGGUAUUAGAUUAAAUAAGGAUAUAUGAACAUGAGGAUCACCCAUGUAUUAUGGGAUAGAUAGACU ?
228 nM

Could you tell me which apparent Kd is on file for GUGGUCAGACAUGAGGAUCACCCAUGUGGAAUAAAUAAGGGAGAGGAUAUAUAAUAUAGGAUAUAAUAGAAGGCUCGGUUGGUG ?
82.5 nM

* * *

Tested on: MS2 coat protein
Assay: apparent Kd, MS2 coat protein; higher = weaker binding; RNA-MaP array
Conditions: ligand present: flavin mononucleotide; designed as: OFF switch for flavin mononucleotide
Y means recorded apparent Kd is 80 nM or above; N means it is below 80 nM.

See these solved cases before continuing.
UACGGAGCUCAGAAGGGACACUGCGGAGAUAUGUCAGGAUAUGACUUCUUAUCGUGUGGUGACAUGAGGAUCACCCAUGUGCUU ... Y
UUCUUGUCAGGAUAUGGCCCAGAGUCUAAGGCACCGAACGGCCAGAAGGGACAUGAGGAUCACCCAUGUAUCCU ... Y
UACGUGUUAGGAUAUCGAGUAGUAUGGCUGGCCUGCAAAACCGAGAAGGAACAUGAGGAUCACCCAUGUAUCUU ... N
GGUACGGCAGGAUAUGGCCUGGACUACAUGAGGAUCACCCAUGUCUUGCAGAAUGUCUAGCCAGAAGGGCCAUGAA ... N

In plain terms: is recorded apparent Kd at least 80 nM for GAAUUAAAUCAAGGAUAUCUGUGGAAGCGGACCUCUUACAUGAGGAUCACCCAUGUUCGCGAGCAAGAGAAGGUGAUUAGCGAA ?
Y

In plain terms: is recorded apparent Kd at least 80 nM for GAUGCAACGCAGAAGGUAACCCAAUUAGGAGAUCUACAUGAGGAUCACCCAUGUAUUUGGAAAAUUAAGGAUAUGCCGAGGAUC ?
N

In plain terms: is recorded apparent Kd at least 80 nM for UUUGAAAAGCAGAAGGUUCAUAACAUGAGGAUCACCCAUGUGACAUUAAUGAUCCGGUUUUUACGAAAGGAUAUGCUUCUCCUA ?
N

* * *

Test system: MS2 coat protein
Assay: apparent Kd, MS2 coat protein; higher = weaker binding; RNA-MaP array; tryptophan 2.4 mM where present
Details: designed as: OFF switch for tryptophan; no ligand
Items are presented alongside their recorded apparent Kd.
Give just the numeric value; nM need not be written.

Past entries and their recorded results:
AAUGAGUGGUGGUCAAGUGAUCCUCAUGAACGAGGACCGGUACGGCCGCCACUCGAUAACAUGAGGAUCACCCAUGUAAUAAUAA ... 16.5
GGAUAGGACACGGCCGCCACUGCCUAGGAUACUAGAAACAUUUCCUCACAUGAGGAUCACCCAUGUAGGACCGGGUGUCCUAUCG ... 134
UACUUGCUGACGGCCGCCACUAGAACAUGAGGAUCACCCAUGUAUGGCGGCCGUCAUGGGUGGACUAGGACCGGGUCAGCAAGAU ... 9.84

Can you look up apparent Kd on MS2 coat protein for UUCUUUAAGUCGGCCGCCACUGAAACAUGAGGAUCACCCAUGUAUAUUUGUGUAAAGGUGGAUUACAGGACCGGGACUAUAGUAA ?
12
